# TARGET SYSTEM: TEAD1 YAP50-100 (Homo sapiens, UniProt P28347)
# METHOD NOTES: TEAD1-YAP HTRF (TR-FRET) protein-protein interaction assay
# Type: binding
# CONDITIONS: TEAD1, YAP peptide 50-100, HTRF
Labelling: TEAD1 YAP50-100 HTRF combined: Max % Inhibition reported below 70% becomes yes; at or above becomes no.

Record O=C(c1c(-c2ncccn2)nn2c(=O)cc(-c3ccc(CC4CCCC4)cc3)[nH]c12)N1CC(CF)C1 : is its TEAD1 YAP50-100 HTRF combined: Max % Inhibition strictly below 70%? yes

Please indicate whether the reported TEAD1 YAP50-100 HTRF combined: Max % Inhibition of O=C(c1c(-c2nccnc2C(F)(F)F)nn2c(=O)cc(-c3ccc(C4CCCCC4)cc3)[nH]c12)N1CC(CF)C1 is strictly below 70%. no

Dear colleague, could you confirm whether TEAD1 YAP50-100 HTRF combined: Max % Inhibition of N#Cc1nccnc1-c1nn2c(=O)cc(-c3ccc(C4CCCCC4)cc3)[nH]c2c1C(=O)N1CC(CF)C1 falls below 70%? Thanks. no

Regarding C[C@@H]1[C@H](CF)CN1C(=O)c1c(-c2ncccn2)nn2c(=O)cc(-c3ccc(CC4CCCC4)cc3)[nH]c12 (single isomer, unassigned) [Isomer B, Example 43] , kindly confirm whether its TEAD1 YAP50-100 HTRF combined: Max % Inhibition is beneath 70%. yes

A record lists [2H]C1([2H])C([2H])([2H])C([2H])([2H])C([2H])(c2ccc(-c3cc(=O)n4nc(-c5nccnc5C)c(C(=O)N5C[C@H](CF)[C@@H]5C)c4[nH]3)cc2)C([2H])([2H])C1([2H])[2H] . Is its TEAD1 YAP50-100 HTRF combined: Max % Inhibition below 70%? no

Here's an entry: Cc1nccnc1-c1nn2c(=O)cc(-c3ccc(C4CCCCC4)c(F)c3)[nH]c2c1C(=O)N1CC(CF)C1 . Is its TEAD1 YAP50-100 HTRF combined: Max % Inhibition below 70%? no

For Cc1nccnc1-c1nn2c(=O)cc(-c3ccc(CC4CCCC4)cc3)[nH]c2c1C(=O)N1C[C@@H](CF)[C@H]1C (single isomer, unassigned) [Isomer A, Example 42] , is the recorded TEAD1 YAP50-100 HTRF combined: Max % Inhibition below the cut-off of 70%? yes

TEAD1 YAP50-100 HTRF combined: Max % Inhibition strictly < 70% for this molecule? C[C@H]1[C@@H](CF)CN1C(=O)c1c(-c2ncccn2)nn2c(=O)cc(-c3ccc(C4CCCCC4)cc3)[nH]c12 (single isomer, unassigned) [Isomer B, Example 40] no

For Cc1nccnc1-c1nn2c(=O)cc(-c3ccc(C(F)(F)C4CCCC4)cc3)[nH]c2c1C(=O)N1CC(CF)C1 , is the recorded TEAD1 YAP50-100 HTRF combined: Max % Inhibition below the cut-off of 70%? yes

Consider C[C@@H]1[C@H](CF)CN1C(=O)c1c(-c2ncccn2)nn2c(=O)cc(-c3ccc(C4CCCCC4)cc3)[nH]c12 (single isomer, unassigned) [Isomer A, Example 40] . Does its TEAD1 YAP50-100 HTRF combined: Max % Inhibition lie strictly below 70%? no

Is 70% strictly greater than the molecule's reported TEAD1 YAP50-100 HTRF combined: Max % Inhibition? molecule: Cc1nccnc1-c1nn2c(=O)cc(-c3ccc(OC(c4ccccc4)C(F)(F)F)cc3)[nH]c2c1C(=O)N1C[C@H](CF)[C@@H]1C (single isomer, unassigned) [Final product obtained using Enantiomer A from Step 1, Example 56] no

Bench note: check whether Cc1ccnc(-c2nn3c(=O)cc(-c4ccc(C5CCCCC5)cc4)[nH]c3c2C(=O)N2CC(CF)C2)c1 shows TEAD1 YAP50-100 HTRF combined: Max % Inhibition below 70% no

Does O=C(c1c(-c2nccc(C(F)(F)F)n2)nn2c(=O)cc(-c3ccc(C4CCCCC4)cc3)[nH]c12)N1CC(CF)C1 have TEAD1 YAP50-100 HTRF combined: Max % Inhibition strictly under 70%? no

====

# TARGET SYSTEM: TEAD3 YAP50-100 (Homo sapiens)
# Sequence (Q99594 173-435 limits assumed): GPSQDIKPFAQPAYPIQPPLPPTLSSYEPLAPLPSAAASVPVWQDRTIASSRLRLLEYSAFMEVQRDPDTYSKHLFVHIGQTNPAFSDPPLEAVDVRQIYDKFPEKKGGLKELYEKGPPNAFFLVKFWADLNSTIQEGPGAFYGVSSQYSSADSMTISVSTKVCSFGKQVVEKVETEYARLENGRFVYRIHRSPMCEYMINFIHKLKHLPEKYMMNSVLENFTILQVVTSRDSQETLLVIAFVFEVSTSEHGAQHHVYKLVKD
# METHOD NOTES: TEAD3-YAP HTRF (TR-FRET) protein-protein interaction assay
# CONDITIONS: TEAD3, YAP peptide 50-100, HTRF; read-out: TEAD3 YAP50-100 HTRF combined: EC50
Would you mind telling me the reported EC50 of each entry?
Reply with a number, then the unit it belongs to.

Measured EC50, Cc1c(-c2nn3c(=O)cc(-c4ccc(C5CCCCC5)cc4)[nH]c3c2C(=O)N2CC(CF)C2)ncn1C [Compound 30] : 90 nM

The measured EC50 associated with C[C@@H](CO)c1nn2c(=O)cc(-c3ccc(C4CCCCC4)cc3)[nH]c2c1C(=O)N1CC(CF)C1 (single isomer, unassigned) [Enantiomer B, Example 55] reads 80 nM

# compound Cc1nccnc1-c1nn2c(=O)cc(-c3ccc(C4CCCCC4)cc3)[nH]c2c1C(=O)N(C)C [Compound 20] ; its EC50 = 50 nM

====

# TARGET SYSTEM: TEAD1 TAZ (amino acids 13-57) (Homo sapiens, UniProt P28347)
# Sequence (P28347 167-426 limits assumed): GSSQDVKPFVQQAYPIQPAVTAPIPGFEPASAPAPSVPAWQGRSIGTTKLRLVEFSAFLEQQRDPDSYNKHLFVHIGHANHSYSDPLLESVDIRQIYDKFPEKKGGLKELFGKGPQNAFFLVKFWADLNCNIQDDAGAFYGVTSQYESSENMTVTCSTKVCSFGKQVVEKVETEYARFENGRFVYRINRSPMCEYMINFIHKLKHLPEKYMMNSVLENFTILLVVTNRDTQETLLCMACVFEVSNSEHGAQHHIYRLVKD
# METHOD NOTES: TEAD1-TAZ HTRF (TR-FRET) protein-protein interaction assay
# Format: binding
# CONDITIONS: TEAD1, TAZ peptide, HTRF
Binary call on TEAD1 TAZ HTRF combined: Max % Inhibition: 1 from 60% upward, -1 beneath that.

Reported TEAD1 TAZ HTRF combined: Max % Inhibition at or above 60%? Cc1nccnc1-c1nn2c(=O)cc(-c3ccc(C4CCC(F)(F)CC4)cc3)[nH]c2c1C(=O)N1CC(CF)C1 1

Would you say C[C@H]1[C@@H](CF)CN1C(=O)c1c(-c2ncccn2)nn2c(=O)cc(-c3ccc(C4CCCCC4)cc3)[nH]c12 (single isomer, unassigned) [Isomer B, Example 40] shows TEAD1 TAZ HTRF combined: Max % Inhibition at minimum 60%? 1

Identify whether the reported TEAD1 TAZ HTRF combined: Max % Inhibition of the following compound is 60% or greater: Cc1nccnc1-c1nn2c(=O)cc(-c3ccc(CC4CCCC4)cc3)[nH]c2c1C(=O)N1C[C@@H](CF)[C@H]1C (single isomer, unassigned) [Isomer A, Example 42] -1

Hello, I need to know if C[C@H]1[C@@H](CF)CN1C(=O)c1c(-c2cnccn2)nn2c(=O)cc(-c3ccc(CC4CCCC4)cc3)[nH]c12 (single isomer, unassigned) [Isomer A, Example 44] has measured TEAD1 TAZ HTRF combined: Max % Inhibition not below 60%. Thanks! -1

Item Cc1nccnc1-c1nn2c(=O)cc(-c3ccc(C4CCCCC4)cc3)[nH]c2c1C(=O)N1C[C@H](CF)[C@@H]1C (single isomer, unassigned) [Isomer B, Example 41] with TEAD1 TAZ HTRF combined: Max % Inhibition of 60% or above? 1

Please check the record CC(C)c1ccc(COc2cc(=O)n3nc(-c4cnccn4)c(C(=O)N4CC(CF)C4)c3[nH]2)cc1 and state if its TEAD1 TAZ HTRF combined: Max % Inhibition is at or above 60%. 1

====

Provide the reported pEC50 of each item.
# TARGET SYSTEM: TEAD1 YAP50-100 (Homo sapiens, UniProt P28347)
# METHOD NOTES: TEAD1-YAP HTRF (TR-FRET) protein-protein interaction assay
# CONDITIONS: TEAD1, YAP peptide 50-100, HTRF; read-out: TEAD1 YAP50-100 HTRF combined: EC50
Would you please state pEC50, meaning minus log10 of the concentration in mol/L, as a bare number?

The measured pEC50 associated with Cc1nccnc1-c1nn2c(=O)cc(-c3ccc(CC(C)(C)C)cc3)[nH]c2c1C(=O)N1C[C@H](CF)[C@@H]1C (racemic) reads 6.92

For record CCCCCCCCCc1cc(=O)n2nc(-c3nccnc3C)c(C(=O)N3C[C@H](CF)[C@@H]3C)c2[nH]1 the listed pEC50 is 7.30

In plain terms, CN(C)C(=O)c1nn2c(=O)cc(-c3cc(F)c(C4CCCCC4)c(F)c3)[nH]c2c1C(=O)N1CC(CF)C1 has a documented pEC50 of 7.22

Record summary for O=C(c1c(-c2ccccc2)nn2c(=O)cc(-c3ccc(C4CCCCC4)cc3)[nH]c12)N1CC(CF)C1 : reported pEC50 = 6.68

# pEC50 of CC(C)(C)c1ccc(COc2cc(=O)n3nc(-c4ncccn4)c(C(=O)N4CC(CF)C4)c3[nH]2)cc1 = 7.30

Looking up Cc1nccnc1-c1nn2c(=O)cc(-c3ccc(C4CCCCC4)cc3)[nH]c2c1C(=O)N(C)C , I found its pEC50 recorded as 7.30

For reference, reported pEC50 for CC(C)c1ccnc(-c2nn3c(=O)cc(-c4ccc(C5CCCCC5)cc4)[nH]c3c2C(=O)N2CC(CF)C2)n1 stands at 7.22

The compound identified as Cc1nccnc1-c1nn2c(=O)cc(-c3ccc(C(F)(F)C4CCCC4)cc3)[nH]c2c1C(=O)N1CC(CF)C1 registered its pEC50 at 7.22

Notebook: Cc1nccnc1-c1nn2c(=O)cc(-c3ccc(-c4ccccc4)cc3)[nH]c2c1C(=O)N1CC(CF)C1 , pEC50 read as 7.52

Sample C[C@@H]1[C@H](CF)CN1C(=O)c1c(-c2ncccn2)nn2c(=O)cc(-c3ccc(CC4CCCC4)cc3)[nH]c12 (single isomer, unassigned) [Isomer B, Example 43] ; pEC50 observed: 7.30

Entry C[C@H]1[C@@H](CF)CN1C(=O)c1c(-c2ncccn2)nn2c(=O)cc(-c3ccc(CC4CCCC4)cc3)[nH]c12 (single isomer, unassigned) [Isomer A, Example 43] ; pEC50 = 7.52

pEC50 for Cc1cnc(-c2nn3c(=O)cc(-c4ccc(C5CCCCC5)cc4)[nH]c3c2C(=O)N2CC(CF)C2)cn1 is 7.22

For reference, reported pEC50 for Cn1cnc(-c2nn3c(=O)cc(-c4ccc(C5CCCCC5)cc4)[nH]c3c2C(=O)N2CC(CF)C2)c1 stands at 7.30

Record summary for Cc1nccnc1-c1nn2c(=O)cc(-c3ccc(C4CCC(F)(F)CC4)cc3)[nH]c2c1C(=O)N1CC(CF)C1 : reported pEC50 = 6.59

Entry source: patent US12692269B2
